- System: MT4
- Method notes: Cytotoxicity against human MT4 cells assessed as viable cells at 100 uM after 3 days by tryptan blue dye assay
- Type: cell-based
- Study conditions: mt4, 72 h

Molecule | Activity
CC1=N[C@H](CC(C)C)C(=O)N(Cc2ccc(-c3ccccc3)cc2)c2cc(C(=O)O)ccc21 | Toxic
CCCCCCCCCCNC(=O)CN1C(=O)[C@@H](CC(C)C)N=C(C)c2ccc(C(=O)O)cc21 | Toxic
CCCCCCCCCCCCCCCCNC(=O)CN1C(=O)[C@@H](CC(C)C)N=C(C)c2ccc(C(=O)O)cc21 | Toxic
CC1=N[C@H](CC(C)C)C(=O)N(Cc2ccc(C3CCCCC3)cc2)c2cc(C(=O)O)ccc21 | Toxic

Ref: ChEMBL document CHEMBL3627703
